Below, each of the molecules is paired with its reported Emax value.
molecular target: ΔF508-CFTR (Homo sapiens, UniProt P13569, DEL508-508); construct: expressed in transfected cells; assay: Membrane potential optical assay (FRET voltage-sensor dyes, VIPR), identification of potentiator compounds; assay type: cell-based; conditions: Table 3; assay not given; read-out: % Activity (% Efficacy, relative efficacy)
Sequence (P13569 with tags, fused parts or gaps DEL508-508): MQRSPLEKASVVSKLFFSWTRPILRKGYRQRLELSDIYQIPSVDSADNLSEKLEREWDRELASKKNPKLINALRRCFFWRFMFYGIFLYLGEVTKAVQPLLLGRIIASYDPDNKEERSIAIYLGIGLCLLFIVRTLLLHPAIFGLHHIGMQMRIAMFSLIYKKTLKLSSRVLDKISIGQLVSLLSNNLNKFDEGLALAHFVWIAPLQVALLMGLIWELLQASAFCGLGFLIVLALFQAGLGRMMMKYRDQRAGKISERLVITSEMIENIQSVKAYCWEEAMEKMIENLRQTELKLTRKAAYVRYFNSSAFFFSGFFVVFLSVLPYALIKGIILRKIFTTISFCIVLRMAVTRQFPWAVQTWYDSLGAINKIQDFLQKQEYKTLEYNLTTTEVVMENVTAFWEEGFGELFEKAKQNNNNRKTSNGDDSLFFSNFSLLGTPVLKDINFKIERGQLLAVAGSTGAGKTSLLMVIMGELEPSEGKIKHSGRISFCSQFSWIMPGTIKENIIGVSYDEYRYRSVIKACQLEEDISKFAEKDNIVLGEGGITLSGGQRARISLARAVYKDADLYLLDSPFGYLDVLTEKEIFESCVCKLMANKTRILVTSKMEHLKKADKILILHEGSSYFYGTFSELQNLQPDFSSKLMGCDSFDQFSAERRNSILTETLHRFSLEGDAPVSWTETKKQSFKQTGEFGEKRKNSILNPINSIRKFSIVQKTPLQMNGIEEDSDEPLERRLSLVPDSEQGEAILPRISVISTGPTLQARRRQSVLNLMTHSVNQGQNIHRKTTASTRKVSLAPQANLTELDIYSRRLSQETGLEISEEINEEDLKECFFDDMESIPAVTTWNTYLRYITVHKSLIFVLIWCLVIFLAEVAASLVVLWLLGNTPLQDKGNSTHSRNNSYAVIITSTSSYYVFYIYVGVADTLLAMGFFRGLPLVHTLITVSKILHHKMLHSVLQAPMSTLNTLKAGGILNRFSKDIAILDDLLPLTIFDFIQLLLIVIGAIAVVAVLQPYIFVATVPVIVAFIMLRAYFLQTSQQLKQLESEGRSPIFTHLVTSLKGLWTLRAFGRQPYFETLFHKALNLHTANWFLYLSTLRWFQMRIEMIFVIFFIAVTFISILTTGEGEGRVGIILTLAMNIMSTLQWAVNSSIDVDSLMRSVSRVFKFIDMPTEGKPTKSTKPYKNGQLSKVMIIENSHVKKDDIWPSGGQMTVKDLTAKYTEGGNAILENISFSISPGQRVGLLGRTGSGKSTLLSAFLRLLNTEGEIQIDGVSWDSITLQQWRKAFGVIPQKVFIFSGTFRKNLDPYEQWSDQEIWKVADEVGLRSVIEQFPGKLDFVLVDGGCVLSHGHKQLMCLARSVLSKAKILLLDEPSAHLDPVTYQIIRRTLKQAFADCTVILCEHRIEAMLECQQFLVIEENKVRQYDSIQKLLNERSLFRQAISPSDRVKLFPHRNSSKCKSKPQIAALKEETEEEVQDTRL
observed property: Emax

- chem smiles: "CN(C)CCS(=O)(=O)Nc1cc(NC(=O)c2c[nH]c3ccccc3c2=O)cc(C(F)(F)F)c1"
  tgt: "ΔF508-CFTR (Homo sapiens, UniProt P13569, DEL508-508)"
  result: "25 to 100%"
- chem smiles: "C=C(C)c1ccccc1NC(=O)c1c[nH]c2ccccc2c1=O"
  tgt: "ΔF508-CFTR (Homo sapiens, UniProt P13569, DEL508-508)"
  result: "> 100%"
- chem smiles: "CC(C)c1ccc(NC(=O)c2c[nH]c3ccccc3c2=O)cc1O"
  tgt: "ΔF508-CFTR (Homo sapiens, UniProt P13569, DEL508-508)"
  result: "25 to 100%"
- chem smiles: "O=C(Nc1csc(C(F)(F)F)c1-c1ccccc1)c1c[nH]c2ccccc2c1=O"
  tgt: "ΔF508-CFTR (Homo sapiens, UniProt P13569, DEL508-508)"
  result: "25 to 100%"
- chem smiles: "O=C(Nc1ccccc1-c1cccc(F)c1)c1c[nH]c2ccccc2c1=O"
  tgt: "ΔF508-CFTR (Homo sapiens, UniProt P13569, DEL508-508)"
  result: "> 100%"
- chem smiles: "O=C(Nc1cccc2nsnc12)c1c[nH]c2ccccc2c1=O"
  tgt: "ΔF508-CFTR (Homo sapiens, UniProt P13569, DEL508-508)"
  result: "< 25%"
- chem smiles: "CCCCOc1ccccc1NC(=O)c1c[nH]c2ccccc2c1=O"
  tgt: "ΔF508-CFTR (Homo sapiens, UniProt P13569, DEL508-508)"
  result: "> 100%"
- chem smiles: "COc1ccc(-c2ccccc2NC(=O)c2c[nH]c3ccccc3c2=O)cc1OC"
  tgt: "ΔF508-CFTR (Homo sapiens, UniProt P13569, DEL508-508)"
  result: "25 to 100%"
- chem smiles: "CC1(C)CNc2cc(NC(=O)c3c[nH]c4ccccc4c3=O)ccc21"
  tgt: "ΔF508-CFTR (Homo sapiens, UniProt P13569, DEL508-508)"
  result: "25 to 100%"

----------
molecular target: ΔF508-CFTR (Homo sapiens, UniProt P13569, DEL508-508); construct: expressed in transfected cells; experiment: Membrane potential optical assay (FRET voltage-sensor dyes, VIPR), identification of potentiator compounds; format: cell-based; conditions: Table 3; assay not given; read-out: % Activity (% Efficacy, relative efficacy)

- chem smiles: "CC(C)(C)c1cc2cc[nH]c2cc1NC(=O)c1c[nH]c2c(C(F)(F)F)cccc2c1=O"
  tgt: "ΔF508-CFTR (Homo sapiens, UniProt P13569, DEL508-508)"
  Emax: "< 25%"
- chem smiles: "NS(=O)(=O)c1cccc(NC(=O)c2c[nH]c3ccccc3c2=O)c1"
  tgt: "ΔF508-CFTR (Homo sapiens, UniProt P13569, DEL508-508)"
  Emax: "< 25%"
- chem smiles: "Cc1cc2ccc(NC(=O)c3c[nH]c4ccccc4c3=O)cc2[nH]1"
  tgt: "ΔF508-CFTR (Homo sapiens, UniProt P13569, DEL508-508)"
  Emax: "25 to 100%"
- chem smiles: "Cc1cccc2[nH]cc(C(=O)Nc3ccc(OC(C)C)c(O)c3)c(=O)c12"
  tgt: "ΔF508-CFTR (Homo sapiens, UniProt P13569, DEL508-508)"
  Emax: "25 to 100%"
- chem smiles: "CC(=O)N1CCC2(CCN(C(=O)OC(C)(C)C)CC2)c2ccc(NC(=O)c3c[nH]c4ccccc4c3=O)cc21"
  tgt: "ΔF508-CFTR (Homo sapiens, UniProt P13569, DEL508-508)"
  Emax: "25 to 100%"
- chem smiles: "O=C(Nc1ccc(C(F)(F)F)c(O)c1)c1c[nH]c2ccccc2c1=O"
  tgt: "ΔF508-CFTR (Homo sapiens, UniProt P13569, DEL508-508)"
  Emax: "25 to 100%"
- chem smiles: "CC(C)(C)c1ccc(O)cc1NC(=O)c1c[nH]c2cccc(O)c2c1=O"
  tgt: "ΔF508-CFTR (Homo sapiens, UniProt P13569, DEL508-508)"
  Emax: "25 to 100%"
- chem smiles: "CC1CCN(c2ccccc2NC(=O)c2c[nH]c3ccccc3c2=O)CC1"
  tgt: "ΔF508-CFTR (Homo sapiens, UniProt P13569, DEL508-508)"
  Emax: "25 to 100%"
